test: Volume of distribution at steady state in C57 black mouse at 5 mg/kg, iv; format: ADME, organism-based; details: in vivo, read-out: Vdss
I'd be grateful if you could share measured Vd for these entries.
Give just the numeric value; L/kg need not be written.

For the compound Cc1cc(C(F)(F)F)ccc1-c1ccc2nn(C(CC(C)C)c3ccc(C(=O)NCCC(=O)O)cc3)cc2c1Cl (racemic) , what Vd is on record?
0.9

For the compound CC(C)CC(c1ccc(C(=O)NCCC(=O)O)cc1)n1ccc2cc(-c3ccc(C(F)(F)F)cc3)ccc21 (racemic) , what Vd is on record?
1.05

For the compound Cc1cc(C(F)(F)F)ccc1-c1cc2cnn(C(CC(C)C)c3ccc(C(=O)NCCC(=O)O)nc3)c2cc1C (racemic) , what Vd is on record?
1.85

Provenance of the data: ChEMBL document CHEMBL4387743
